Experiment: Prodrug conversion in Lewis rat blood assessed as formation phosphate metabolite at 2 mg/kg, po after 4 hrs
Format: ADME, organism-based
Details: in vivo
readout-type: Drug metabolism (nM)

Example entries and their recorded answers appear below.
# smiles-repr, Drug metabolism (nM)
rows = [
    ("CCCc1nc2c(s1)-c1ccc([C@H]3CC[C@](N)(CO)C3)cc1CC2", 79),
    ("CCCCCSc1nc2c(s1)-c1ccc([C@H]3CC[C@](N)(CO)C3)cc1CC2", 43),
    ("CCCCOc1nc2c(s1)-c1ccc([C@H]3CC[C@](N)(CO)C3)cc1CC2", 34),
    ("CCCCCOc1nc2c(s1)-c1ccc([C@H]3CC[C@](N)(CO)C3)cc1CC2", 71),
]

1. CCCCOc1nc2ccc3cc([C@H]4CC[C@](N)(CO)C4)ccc3c2s1
2. COc1cccc(-c2nc3c(s2)-c2ccc([C@H]4CC[C@](N)(CO)C4)cc2CC3)c1
### Prompt Which value of Drug metabolism is greater, the one for 1 or the one for 2 ? Return value: the label identifying the chosen record.
### Response 2
(2: 39 nM, 1: 5.1 nM)

1. CCCCc1nc2c(s1)-c1ccc([C@H]3CC[C@](N)(CO)C3)cc1CC2
2. CCCCCCCc1nc2c(s1)-c1ccc([C@H]3CC[C@](N)(CO)C3)cc1CC2
### Prompt # returns the entry with the larger Drug metabolism; inputs 1 and 2 Output the label that corresponds to your choice.
### Response 1

A. CCCCNc1nc2c(s1)-c1ccc([C@H]3CC[C@](N)(CO)C3)cc1CC2
B. Cc1ccc(-c2nc3c(s2)-c2ccc([C@H]4CC[C@](N)(CO)C4)cc2CC3)cc1
C. CCCCCCOc1nc2ccc3cc([C@H]4CC[C@](N)(CO)C4)ccc3c2s1
D. CCCCOCCOc1nc2c(s1)-c1ccc([C@H]3CC[C@](N)(CO)C3)cc1CC2
E. CCCCCCOc1nc2c(s1)-c1ccc([C@H]3CC[C@](N)(CO)C3)cc1CC2
### Prompt List these items ordered by Drug metabolism, big to small. Please, when replying, give the labels in the order that was requested.
### Response A, C, D, E, B
